System: cancer cell lines, DetermaIO classes
protocol_summary: Association of PRISM compound sensitivity with DetermaIO (DTIO) cell line classes
Format: cell-based
condition_info: correlation of PRISM compound sensitivity with DTIO; training cell set
recorded_metric: DTIO Corr train

compound: C[N+](C)(C)CC#CCN1CCCC1=O [oxotremorine-m]
experimental_value: −0.0669
--
compound: CC(C)=CCC[C@](C)(O)[C@H]1CC[C@]2(C)[C@@H]1[C@H](O)C[C@@H]1[C@@]3(C)CC[C@H](O[C@@H]4O[C@H](CO)[C@@H](O)[C@H](O)[C@H]4O[C@@H]4O[C@H](CO)[C@@H](O)[C@H](O)[C@H]4O)C(C)(C)[C@@H]3CC[C@]12C [ginsenoside-rg3]
experimental_value: 0.0566
--
compound: CNC(=O)c1cnn(-c2nc(N)c3ncn([C@@H]4O[C@H](CO)[C@@H](O)[C@H]4O)c3n2)c1 [regadenoson]
experimental_value: −0.1586
--
compound: CCOC(=O)c1ncc2[nH]c3ccc(OCc4ccccc4)cc3c2c1COC.Cl [ZK-93423]
experimental_value: 0.1098
--
compound: CCNCCCNCCCCNCCCNCC [1,12-Besm]
experimental_value: 0.07515
--
compound: O=C(CCn1cnc2c(=O)[nH]cnc21)Nc1ccc(C(=O)O)cc1 [leteprinim]
experimental_value: −0.08293
--
compound: O=C(c1ccc(Cl)o1)N1CC2CNCC2C1 (centres unmarked) [AZD 1446]
experimental_value: −0.01778
--
compound: CCN(CC)CCCC(C)Nc1nc(C)cc(Nc2ccc3nc(C)cc(N)c3c2)n1 (centres unmarked) [NSC-23766]
experimental_value: 0.0675
--
compound: Cc1ccccc1-n1c(Cn2ncc3c(N)ncnc32)nc2cccc(C)c2c1=O [PIK-293]
experimental_value: −0.1397
--
compound: COc1ccc2nc3c(c(N)c2c1)CCCC3 [7-methoxytacrine]
experimental_value: −0.03204
--
compound: C[C@H]1Oc2cc(cnc2N)-c2c(nn(C)c2C#N)CN(C)C(=O)c2ccc(F)cc21 [PF-06463922]
experimental_value: −0.07689

----------
# maps each entry to its DTIO Corr train
Tested on: cancer cell lines, DetermaIO classes
protocol_summary: Association of PRISM compound sensitivity with DetermaIO (DTIO) cell line classes
Type: cell-based
condition_info: correlation of PRISM compound sensitivity with DTIO; training cell set
recorded_metric: DTIO Corr train

molecule: Cc1ccc([N+](=O)[O-])cc1S(=O)(=O)N(C)/N=C/c1cnc2ccc(Br)cn12
system_name: cancer cell lines, DetermaIO classes
experimental_value: −0.1178

molecule: C=CCNC(=O)c1cc([N+](=O)[O-])cc2c(=O)[nH]c(Nc3ccc(Cl)c(Cl)c3)nc12
system_name: cancer cell lines, DetermaIO classes
experimental_value: −0.1839

molecule: CCOC(=O)c1c(C)n(C)c2ccc(O)cc12 [mecarbinate]
system_name: cancer cell lines, DetermaIO classes
experimental_value: −0.07862

molecule: CO/N=C(\C(=O)N[C@@H]1C(=O)N2C(C(=O)OCOC(=O)C(C)(C)C)=C(C)CS[C@H]12)c1csc(N)n1
system_name: cancer cell lines, DetermaIO classes
experimental_value: −0.1217

molecule: C=C1CC[C@H](O)C/C1=C/C=C1\CCC[C@]2(C)[C@@H]([C@H](C)CC[C@@H](O)C(C)(C)O)CC[C@@H]12
system_name: cancer cell lines, DetermaIO classes
experimental_value: −0.06151

molecule: Cc1occc(=O)c1[O-].Cc1occc(=O)c1[O-].[O]=[V+2]
system_name: cancer cell lines, DetermaIO classes
experimental_value: 0.1485

molecule: CC[C@H](C)[C@@H]1NC(=O)[C@H](Cc2ccc(O)cc2)NC(=O)[C@@H](N)CSSC[C@@H](C(=O)N2CCC[C@H]2C(=O)N[C@@H](CC(C)C)C(=O)NCC(N)=O)NC(=O)[C@H](CC(N)=O)NC(=O)[C@H](CCC(N)=O)NC1=O
system_name: cancer cell lines, DetermaIO classes
experimental_value: 0.04167

molecule: CCN=C1N[C@@H]2[C@@H](O)[C@H](O)[C@@H](CO)O[C@@H]2S1
system_name: cancer cell lines, DetermaIO classes
experimental_value: 0.08206

molecule: C[C@]12CC[C@H]3[C@@H](CC[C@]4(O)C[C@@H](O)CC[C@]34C=O)[C@@]1(O)CC[C@@H]2C1=CC(=O)OC1
system_name: cancer cell lines, DetermaIO classes
experimental_value: −0.01124

molecule: CNC(C)CCC=C(C)C.CNC(C)CCC=C(C)C.O=C(O)[C@@H](O)[C@H](O)[C@H](O)[C@@H](O)C(=O)O [isometheptene-mucate]
system_name: cancer cell lines, DetermaIO classes
experimental_value: −0.1179

molecule: Cc1cc(C)c(N(Cc2ccccc2)S(=O)(=O)c2ccc(OCCNC(=O)c3cc4ccccc4o3)cc2)c(C(=O)NO)c1
system_name: cancer cell lines, DetermaIO classes
experimental_value: 0.0516

molecule: Cc1nc(-c2cccnc2)sc1C(=O)Nc1ccccc1-c1cn2c(CN3CCOCC3)csc2n1
system_name: cancer cell lines, DetermaIO classes
experimental_value: −0.07665

molecule: N[C@@H]1CCCN(c2c(/C=C3\SC(=O)NC3=O)cccc2-c2ccccc2)C1
system_name: cancer cell lines, DetermaIO classes
experimental_value: 0.03472

molecule: CC(C)CCN1c2nc(Nc3cc(F)c(O)c(F)c3)ncc2N(C)C(=O)C1C (centres unmarked)
system_name: cancer cell lines, DetermaIO classes
experimental_value: −0.09163

molecule: O=C(Nc1ccc(C(F)(F)F)cn1)N1CCN(c2ncccc2C(F)(F)F)CC1
system_name: cancer cell lines, DetermaIO classes
experimental_value: −0.1037

molecule: O=C(NCCCN1CCCCCC1)C(c1ccccc1)C1CCCCC1 (centres unmarked)
system_name: cancer cell lines, DetermaIO classes
experimental_value: −0.1606

molecule: CC(O)CN1CCN(CC(=O)[O-])CCN(CC(=O)[O-])CCN(CC(=O)[O-])CC1.[Gd+3] (centres unmarked)
system_name: cancer cell lines, DetermaIO classes
experimental_value: −0.04116

molecule: CCCCCCCC/C=C\CCCCCCCC(=O)N[C@@H](CO)Cc1ccc(O)cc1
system_name: cancer cell lines, DetermaIO classes
experimental_value: 0.00432

molecule: COc1cc2nccc(Oc3ccc(NC(=O)Nc4ccc(F)cc4F)c(F)c3)c2cc1OC
system_name: cancer cell lines, DetermaIO classes
experimental_value: 0.02512

molecule: CN[C@@H]1C[C@H]2O[C@@](C)([C@@H]1OC)n1c3ccccc3c3c4c(c5c6ccccc6n2c5c31)C(=O)N[C@H]4O [7-hydroxystaurosporine]
system_name: cancer cell lines, DetermaIO classes
experimental_value: −0.1515

----------
Test system: cancer cell lines classified IM, MSL, M
protocol_summary: PRISM screen compound sensitivity correlated with IM, MSL and M subtype of cell lines (101 gene signature)
Assay type: cell-based
condition_info: correlation of PRISM compound sensitivity with MSL subtype correlation; test cell set (188 cell lines)

compound: c1ccc2sc(N3CCN(Cc4ccc5c(c4)OCO5)CC3)nc2c1
MSL Corr test: −0.05087
//
compound: Cc1cc(Nc2nc(N[C@@H](C)c3ccc(F)cc3)c(C#N)cc2F)n[nH]1
MSL Corr test: 0.05509
//
compound: Cc1ncc(-c2ccnc(Nc3ccc(S(C)(=O)=O)cc3)n2)n1C(C)C
MSL Corr test: 0.1271
//
compound: CC(C)C(=O)c1ccc(O)c(O)c1
MSL Corr test: 0.06256
//
compound: CC(C)CCN1c2nc(Nc3cc(F)c(O)c(F)c3)ncc2N(C)C(=O)C1C (stereo not drawn)
MSL Corr test: 0.02005
//
compound: O=c1[nH]cnc2ccccc12
MSL Corr test: 0.1063

----------
Tested on: cancer cell lines classified IM, MSL, M
protocol_summary: PRISM screen compound sensitivity correlated with IM, MSL and M subtype of cell lines (101 gene signature)
Format: cell-based
condition_info: correlation of PRISM compound sensitivity with MSL subtype correlation; test cell set (188 cell lines)
Group membership follows MSL Corr test per the scheme c1: < -0.04; c2: ≥ -0.04 and < 0.1; c3: ≥ 0.1

molecule: CCOc1ccc(-n2c([C@@H](C)N(Cc3cccnc3)C(=O)Cc3ccc(OC(F)(F)F)cc3)nc3ncccc3c2=O)cc1
system_name: cancer cell lines classified IM, MSL, M
group: c3
//
molecule: COc1cc(-c2ccc(N=Nc3ccc4c(S(=O)(=O)[O-])cc(S(=O)(=O)[O-])c(N)c4c3O)c(OC)c2)ccc1N=Nc1ccc2c(S(=O)(=O)[O-])cc(S(=O)(=O)[O-])c(N)c2c1O.[Na+].[Na+].[Na+].[Na+]
system_name: cancer cell lines classified IM, MSL, M
group: c3
//
molecule: C[C@@]1(O)[C@H](O)[C@@H](CO)O[C@H]1n1cnc2c(NC3CCCC3)nc(Cl)nc21
system_name: cancer cell lines classified IM, MSL, M
group: c1
//
molecule: COc1ccc(Nc2nccc(NCCO)n2)cc1
system_name: cancer cell lines classified IM, MSL, M
group: c2
//
molecule: O=c1[nH]ccc2cc(OC3CCNCC3)ccc12
system_name: cancer cell lines classified IM, MSL, M
group: c1
//
molecule: CCN(CC)CCCC(C)Nc1nc(C)cc(Nc2ccc3nc(C)cc(N)c3c2)n1 (stereo not shown)
system_name: cancer cell lines classified IM, MSL, M
group: c3
//
molecule: CCCN(CCC)[C@@H]1CCc2c(OC)cccc2[C@@H]1C [UH-232-(+)]
system_name: cancer cell lines classified IM, MSL, M
group: c3
//
molecule: O=C(NCc1cccc(O)c1)Nc1nc(-c2ccncc2)cs1
system_name: cancer cell lines classified IM, MSL, M
group: c1
//
molecule: CNC(=O)CN1CCC(Oc2cc3c(Nc4cccc(Cl)c4F)ncnc3cc2OC)CC1
system_name: cancer cell lines classified IM, MSL, M
group: c3
//
molecule: CCCCCCCCCCC(C)(C)C(=O)Nc1c(OC)cc(OC)cc1OC
system_name: cancer cell lines classified IM, MSL, M
group: c2
//
molecule: Cc1nn(C)c2c1C(c1cccc(Cl)c1)=NCCN2
system_name: cancer cell lines classified IM, MSL, M
group: c1
//
molecule: CC[C@H](C)[C@@H]([C@@H](CC(=O)N1CCC[C@H]1[C@H](OC)[C@@H](C)C(=O)N[C@@H](Cc1ccccc1)c1nccs1)OC)N(C)C(=O)[C@@H](NC(=O)[C@H](C(C)C)N(C)C)C(C)C
system_name: cancer cell lines classified IM, MSL, M
group: c2
//
molecule: Cc1cc(CN2CCN(c3c(Br)cnc4nc(-c5ccc(N6CCN(C)CC6)cc5)[nH]c34)CC2)no1
system_name: cancer cell lines classified IM, MSL, M
group: c2
//
molecule: COc1cc2c(NC3CCN(C(C)C)CC3)nc(N3CCC(F)(F)CC3)nc2cc1OCCCN1CCCC1
system_name: cancer cell lines classified IM, MSL, M
group: c3
//
molecule: O=C(c1ccc(Cl)o1)N1CC2CNCC2C1 (stereo not shown)
system_name: cancer cell lines classified IM, MSL, M
group: c1
//
molecule: COC(=O)[C@H](NC(=O)c1cc(-c2ccccc2)nc2ccccc12)c1ccccc1
system_name: cancer cell lines classified IM, MSL, M
group: c1
//
molecule: C[C@H](C(=O)O)c1ccc(-c2ccccc2)c(F)c1 [flurbiprofen-(S)-(+)]
system_name: cancer cell lines classified IM, MSL, M
group: c2
//
molecule: OCCN1CCN(CC/C=C2/c3ccccc3Sc3ccc(C(F)(F)F)cc32)CC1
system_name: cancer cell lines classified IM, MSL, M
group: c3
//
molecule: C[C@H](N[C@@H](CCc1ccccc1)C(=O)O)C(=O)N1CCC[C@H]1C(=O)O
system_name: cancer cell lines classified IM, MSL, M
group: c1
//
molecule: N#CCNC(=O)c1ccc(-c2ccnc(Nc3ccc(N4CCOCC4)cc3)n2)cc1
system_name: cancer cell lines classified IM, MSL, M
group: c1
//
molecule: Cc1c(NC(=O)OC[C@@H]2COCCN2)cn2ncnc(Nc3ccc4c(cnn4Cc4cccc(F)c4)c3)c12
system_name: cancer cell lines classified IM, MSL, M
group: c3
//
molecule: C=CC(=O)Nc1cccc(Sc2nc(Nc3ccc(N4CCN(C)CC4)cc3)ncc2Cl)c1
system_name: cancer cell lines classified IM, MSL, M
group: c3
//
molecule: CCNCCCNCCCCNCCCNCC
system_name: cancer cell lines classified IM, MSL, M
group: c1
//
molecule: CCN1/C(=C/C(C)=O)Sc2ccc(OC)cc21
system_name: cancer cell lines classified IM, MSL, M
group: c1
//
molecule: CC(C)(C)NCc1cc(Nc2ccnc3cc(Cl)ccc23)c2c(c1O)CCCC2.O=P(O)(O)O.O=P(O)(O)O [naphthoquine-phosphate]
system_name: cancer cell lines classified IM, MSL, M
group: c2
//
molecule: CC1(S(=O)(=O)[O-])CC(=O)c2ccccc2C1=O.[Na+] (stereo not shown)
system_name: cancer cell lines classified IM, MSL, M
group: c1
//
molecule: CCCCCOc1c(OC)ccc2cc(C(=O)NCc3ccc4c(c3)OCO4)c(=O)[nH]c12
system_name: cancer cell lines classified IM, MSL, M
group: c2
